pKi: −log10 of the molar value.
Collected set of pKi measured with UniProtKB P03951 across studies.
assayMetric: pKi

a. Cc1nc(-c2cccc(Cl)c2F)n(C)c1C(=O)N[C@@H](Cc1ccccc1)C(=O)Nc1ccc(C(=O)O)cc1
b. CCC[C@]1(c2ccccc2)C[C@@H](c2cccc(-c3ccc(C(=O)O)cc3C(=O)O)c2)Nc2ccc(C(=N)N)cc21 (racemic)
c. C[C@]1(c2ccccc2)C[C@@H](c2cccc(-c3ccc(N)cc3C(=O)O)c2)Nc2ccc(C(=N)N)cc21 (racemic)
d. NC[C@H]1CC[C@H](C(=O)N[C@H](Cc2ccccc2)c2cc(-c3ccc4c(N)n[nH]c4c3)ccn2)CC1
-- ask Highest to lowest pKi: rank the entries shown above. Output spec: a listing of the labels in the requested order.
-- reply c, d, b, a
